system: LNCaP xenograft; test: Biodistribution of 68Ga-labeled compounds in mice bearing LNCaP xenograft; type: in vivo; conditions: Liver, 1 h p.i.
property: Biodistribution, Liver (Avg) (% ID/g)
// return numeric value only (unit: % ID/g, not printed)

Can you look up the measured Biodistribution, Liver (Avg) of O=C(O)CCCC(NC(=O)NC(CNC(=O)CNC(=O)C(Cc1c2ccccc2cc2ccccc12)NC(=O)C1CCC(CNC(=O)CN2CCN(CC(=O)O)CCN(CC(=O)O)CCN(CC(=O)O)CC2)CC1)C(=O)O)C(=O)O.[68Ga] (stereo not shown) [68Ga-CCZ01198] for me?
0.15

Name the recorded Biodistribution, Liver (Avg) for O=C(O)CCCC(NC(=O)NC(COCCNC(=O)C(Cc1c2ccccc2cc2ccccc12)NC(=O)C1CCC(CNC(=O)CN2CCN(CC(=O)O)CCN(CC(=O)O)CCN(CC(=O)O)CC2)CC1)C(=O)O)C(=O)O.[68Ga] (stereo not shown) [^68Ga-CCZ02011] .
0.27

Which Biodistribution, Liver (Avg) reading was recorded for the molecule O=C(O)CCCC(NC(=O)NC(CCCONC(=O)C(Cc1c2ccccc2cc2ccccc12)NC(=O)C1CCC(CNC(=O)CN2CCN(CC(=O)O)CCN(CC(=O)O)CCN(CC(=O)O)CC2)CC1)C(=O)O)C(=O)O.[68Ga] (stereo not shown) [^68Ga-CCZ02018] ?
0.21

Item under review: O=C(O)CSCC(NC(=O)NC(Cc1ccc(NC(=O)C(Cc2c3ccccc3cc3ccccc23)NC(=O)C2CCC(CNC(=O)CN3CCN(CC(=O)O)CCN(CC(=O)O)CCN(CC(=O)O)CC3)CC2)cc1)C(=O)O)C(=O)O.[68Ga] (stereo not shown) [^68Ga-CCZ01188] . Reported Biodistribution, Liver (Avg)?
0.81

----------
test system: LNCaP xenograft; test: Biodistribution of 68Ga-labeled compounds in mice bearing LNCaP xenograft; type: in vivo; conditions: LNCaP tumor, 1 h p.i.
Would you kindly list Biodistribution, LNCaP tumor (Avg) for each of these compounds?
Supply the numeric figure in % ID/g, leaving out any unit text.

Dear colleague, I am looking for the recorded Biodistribution, LNCaP tumor (Avg) of the following compound: O=C(O)CCCC(NC(=O)NC(COCCNC(=O)C(Cc1c2ccccc2cc2ccccc12)NC(=O)C1CCC(CNC(=O)CN2CCN(CC(=O)O)CCN(CC(=O)O)CCN(CC(=O)O)CC2)CC1)C(=O)O)C(=O)O.[68Ga] (stereo not shown) [^68Ga-CCZ02011]
14.08

Which value of Biodistribution, LNCaP tumor (Avg) has been reported for O=C(O)CCC[C@H](OC(=O)N[C@@H](CCCCNC(=O)[C@H](Cc1c2ccccc2cc2ccccc12)NC(=O)[C@H]1CC[C@H](CNC(=O)CCc2ccc(O)c(CN(CCN(CC(=O)O)Cc3cc(CCC(=O)O)ccc3O)CC(=O)O)c2)CC1)C(=O)O)C(=O)O.[68Ga] [^68Ga-AR-113-1] in the records?
11.86

Biodistribution, LNCaP tumor (Avg) lookup needed for O=C(O)CSCC(NC(=O)NC(CNC(=O)CNC(=O)C(Cc1c2ccccc2cc2ccccc12)NC(=O)C1CCC(CNC(=O)CN2CCN(CC(=O)O)CCN(CC(=O)O)CCN(CC(=O)O)CC2)CC1)C(=O)O)C(=O)O.[68Ga] (stereo not shown) [68Ga-CCZ01194] , thanks.
9.12

Recorded Biodistribution, LNCaP tumor (Avg) for O=C(O)CSCC(NC(=O)NC(Cc1ccc(NC(=O)C(Cc2c3ccccc3cc3ccccc23)NC(=O)C2CCC(CNC(=O)CN3CCN(CC(=O)O)CCN(CC(=O)O)CCN(CC(=O)O)CC3)CC2)cc1)C(=O)O)C(=O)O.[68Ga] (stereo not shown) [^68Ga-CCZ01188] , please?
1.43
